# Test system: Rattus norvegicus
# test description: Antihypertensive effects in conscious, unrestrained, spontaneously hypertensive rats after 30 mg/kg i.p. administration.
# Format: functional
# settings: route intraperitoneal
test readout: Max change in blood pressure (mmHg)
Write the answer as a number in mmHg, unit excluded.

stdin: What does the record list as Max change in blood pressure for CN(C)CC(=O)N1C=CC(c2ccccc2)(c2ccccc2)C=C1.Cl ?
stdout: -29

stdin: What does the record list as Max change in blood pressure for CC1(C)C=CN(C(=O)C(c2ccccc2)c2ccccc2)C=C1 ?
stdout: -9

stdin: What does the record list as Max change in blood pressure for COC(=O)CCN1C=CC(C)(C)C=C1 ?
stdout: -71

stdin: What does the record list as Max change in blood pressure for O=C(c1ccccc1)N1C=CC(c2ccccc2)(c2ccccc2)C=C1 ?
stdout: 11

stdin: What does the record list as Max change in blood pressure for CN(C)CC(=O)N1C=CC(C)(C)C=C1.O=C(O)/C=C\C(=O)O ?
stdout: -52

stdin: What does the record list as Max change in blood pressure for COC(=O)CCCN1C=CC(C)(C)C=C1 ?
stdout: -42
